# system.name: Human B0AT1 (Homo sapiens (Human), UniProt Q695T7)
# Sequence (Q695T7 whole entry): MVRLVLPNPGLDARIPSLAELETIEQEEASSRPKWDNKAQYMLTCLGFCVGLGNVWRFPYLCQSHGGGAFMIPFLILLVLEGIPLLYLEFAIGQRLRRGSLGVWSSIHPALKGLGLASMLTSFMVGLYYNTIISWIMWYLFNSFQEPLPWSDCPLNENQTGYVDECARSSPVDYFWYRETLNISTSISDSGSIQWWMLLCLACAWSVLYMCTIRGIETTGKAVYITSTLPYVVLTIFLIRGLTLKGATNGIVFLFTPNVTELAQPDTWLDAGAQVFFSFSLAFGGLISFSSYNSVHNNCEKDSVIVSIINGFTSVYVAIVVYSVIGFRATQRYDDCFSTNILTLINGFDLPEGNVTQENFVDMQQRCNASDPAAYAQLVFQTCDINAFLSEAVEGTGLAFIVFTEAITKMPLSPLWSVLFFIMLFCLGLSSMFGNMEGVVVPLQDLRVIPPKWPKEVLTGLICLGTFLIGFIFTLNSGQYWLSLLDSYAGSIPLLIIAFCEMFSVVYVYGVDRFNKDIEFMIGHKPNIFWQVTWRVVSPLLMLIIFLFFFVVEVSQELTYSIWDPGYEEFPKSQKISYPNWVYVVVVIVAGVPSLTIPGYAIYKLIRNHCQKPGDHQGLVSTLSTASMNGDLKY
# protocol.notes: hB0AT1 inhibitory test (phenylalanine uptake)
# cond: Human B0AT1 stable expression CHO cells; [3H]-L-phenylalanine uptake, phenylalanine 0.25 mM
property.name: IC50 (µM)

CCc1nnc(CN(CC2(F)CC2)C(=O)CNC(=O)/C=C/c2ccc(C(F)(F)F)cc2)o1: 0.061
O=C(/C=C/c1ccc(C(F)(F)F)cc1)NCC(=O)N1CCc2nc[nH]c2C1: 0.099
COCCN(Cc1ccncn1)C(=O)CNC(=O)/C=C/c1ccc(C(F)(F)F)cc1: 0.438
COc1cc2c(cn1)CN(C(=O)CNC(=O)/C=C/c1ccc(C(F)(F)F)cc1)CC2: 0.02
O=C(/C=C/c1ccc(C(F)(F)F)cc1)NCC(=O)N1CCCc2ncccc21: 0.031

P = O=C(/C=C/c1ccc(C(F)(F)F)cc1)NCC(=O)N1CCc2nnccc2C1
Q = COc1nccc2c1CN(C(=O)CNC(=O)/C=C/c1ccc(C(F)(F)F)cc1)CC2
R = O=C(/C=C/c1ccc(C(F)(F)F)cc1)NCC(=O)N1CCc2ncsc2C1
S = O=C(/C=C/c1ccc(C(F)(F)F)cc1)NCC(=O)N1CCNC(=O)CC1
Exam item: list the entries in increasing order of IC50. Labels, requested order.
Marked response: R, Q, P, S
